Assay: Cmax in BALB/c mouse at 10 mg/kg, po
Format: ADME, organism-based
Set-up: dose 10 mg/kg, route oral
Details: in vivo
Property: Cmax (µM)
API: value field is a number in µM; no unit string.

Input: Suppose we examine the compound O=C(Nc1ccc(Oc2ccnc3[nH]ccc23)c(F)c1)c1cccn(-c2ccc(F)cc2)c1=O ; what Cmax value has been reported?
Output: 11.5

###

Biological target: Mast/stem cell growth factor receptor Kit (Homo sapiens, UniProt P10721)
Sequence (P10721 whole entry): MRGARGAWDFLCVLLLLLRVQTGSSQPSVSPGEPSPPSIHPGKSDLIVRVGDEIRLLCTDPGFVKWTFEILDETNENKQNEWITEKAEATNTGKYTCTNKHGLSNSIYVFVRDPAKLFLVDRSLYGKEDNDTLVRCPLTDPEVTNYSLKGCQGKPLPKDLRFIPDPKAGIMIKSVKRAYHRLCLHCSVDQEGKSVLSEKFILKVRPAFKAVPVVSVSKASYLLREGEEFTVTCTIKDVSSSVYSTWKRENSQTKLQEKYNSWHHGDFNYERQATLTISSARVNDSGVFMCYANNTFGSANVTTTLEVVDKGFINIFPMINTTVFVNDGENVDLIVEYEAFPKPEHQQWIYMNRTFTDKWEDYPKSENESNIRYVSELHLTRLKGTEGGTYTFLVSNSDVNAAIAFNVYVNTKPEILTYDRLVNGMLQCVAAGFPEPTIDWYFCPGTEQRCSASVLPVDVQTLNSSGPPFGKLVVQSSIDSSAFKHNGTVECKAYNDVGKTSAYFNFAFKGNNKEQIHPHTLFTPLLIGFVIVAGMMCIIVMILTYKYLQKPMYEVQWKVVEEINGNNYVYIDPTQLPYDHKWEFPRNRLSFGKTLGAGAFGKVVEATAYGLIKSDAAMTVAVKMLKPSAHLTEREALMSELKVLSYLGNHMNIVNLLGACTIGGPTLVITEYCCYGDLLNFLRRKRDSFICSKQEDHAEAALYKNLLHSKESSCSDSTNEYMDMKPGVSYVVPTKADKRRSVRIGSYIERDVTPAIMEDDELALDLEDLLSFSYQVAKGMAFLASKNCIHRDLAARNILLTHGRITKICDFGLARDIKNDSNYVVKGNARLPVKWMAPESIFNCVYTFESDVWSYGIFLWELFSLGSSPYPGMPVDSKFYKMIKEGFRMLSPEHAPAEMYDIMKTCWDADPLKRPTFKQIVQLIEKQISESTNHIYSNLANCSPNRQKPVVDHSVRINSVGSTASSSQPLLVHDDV
Property: pIC50
Please report pIC50 as the negative decimal logarithm of the molar concentration, giving only the number.

Input: Return pIC50 measured with Mast/stem cell growth factor receptor Kit (Homo sapiens, UniProt P10721) given this molecule: O=C(Nc1ccc(Oc2ccnc3[nH]ccc23)c(F)c1)c1cccn(-c2ccc(F)cc2)c1=O
Output: 6.21
